# test details: Toxicity liver stage against HepG2, at 10uM
# Type: cell-based
# Set-up: test concentration 10 uM, cell line HepG2-A16-CD81EGFP
# run conditions: human, HepG2-A16-CD81EGFP cells; read-out: INHIBITION
measurement kind: cytotoxicity at 10 µM (%)
Give the number; % is assumed, so skip it.

compound	unit abbrev	cytotoxicity at 10 µM
COc1ccc(Cc2nnc(SC)o2)cc1OC	%	-13.8
CCC(C)(C)NC(=O)Cn1nnc(CN(C)C(=O)c2ccccc2)n1	%	9.74
CN1CCN(CC2(O)CCCN(S(=O)(=O)c3cn[nH]c3)CC2)CC1 (stereo unspecified)	%	2.25
CCc1nc(CN(C)Cc2ncc(-c3cccs3)o2)cs1	%	9.15
COCc1nc(C2CC2)nn1-c1ccccc1Cl	%	-0.808

Field request: cytotoxicity at 10 µM | item: Cc1cnn(CC(C)NCc2ccccc2OCc2cccnc2)c1 (stereo unspecified)
-12.9

Field request: cytotoxicity at 10 µM | item: `CCOc1cc(/C=C/c2ncc(C(=O)O)s2)cc(Br)c1O`
-4.49

Field request: cytotoxicity at 10 µM | item: CC(C)C(=O)N1CCC(c2c(C(N)=O)sc3ccccc23)C1 (stereo unspecified)
-2.66

Field request: cytotoxicity at 10 µM | item: CCOc1ncccc1C(=O)NC1CCCN(c2ncccn2)C1 (stereo unspecified)
-23.5

Field request: cytotoxicity at 10 µM | item: O=C1CO[C@@H]2CN(CC3CCOC3)C[C@H]2N1Cc1cccc(F)c1 (stereo partly specified)
-73.5

Field request: cytotoxicity at 10 µM | item: CN(C)CC1(O)CCCN(C(=O)Cn2ccc3ccccc32)CC1 (stereo unspecified)
-1.96

Field request: cytotoxicity at 10 µM | item: `O=C([C@@H]1C[C@@H]2CCN(c3cccc(F)c3)C[C@H]2O1)N1CCCC1`
-1.34

Field request: cytotoxicity at 10 µM | item: CN(C)CCN1C(=O)CCC12CCCN(C(=O)CC1CC1)CC2 (stereo unspecified)
-1.48

Field request: cytotoxicity at 10 µM | item: `c1ccc(O[C@@H]2CN(Cc3nccs3)[C@@H]3CCCO[C@@H]32)nc1`
-8.52

Field request: cytotoxicity at 10 µM | item: `COCC(=O)N1CC[C@@H](OCC2CC2)[C@@H]1Cc1cccnc1`
-4.92

Field request: cytotoxicity at 10 µM | item: O=C(NCC(O)c1ccccc1C(F)(F)F)c1cccnc1 (stereo unspecified)
-2.9

====

# test details: Toxicity liver stage against HepG2, at 10uM
# Format: cell-based
# Parameters: test concentration 10 uM, cell line HepG2-A16-CD81EGFP
# run conditions: human, HepG2-A16-CD81EGFP cells; read-out: INHIBITION
Quick reference for cytotoxicity at 10 µM among some compounds

Solved entries (count: 4):
compound	cytotoxicity at 10 µM
CN(C1CCCC1)C(C)(C)C(=O)NCCS(C)(=O)=O	-49.7%
Cc1ccc2c(c1)C(=O)NCC1(CCN(C(=O)c3scnc3C)CC1)O2	-17.3%
CCC(=O)N1CCc2[nH]cnc2C12CCN(C1CCOCC1)CC2	-6.47%
CC(C(=O)NCC1CCN(c2ccncc2)CC1)S(C)(=O)=O (stereo not given)	17.4%

Consider the record given below.
Field request: cytotoxicity at 10 µM | item: `CSCCCN1CC[C@@]2(O)CCN(c3ncccn3)C[C@H]2C1`
-4.53%

====

# test details: Toxicity liver stage against HepG2, at 10uM
# Assay type: cell-based
# Set-up: test concentration 10 uM, cell line HepG2-A16-CD81EGFP
# run conditions: human, HepG2-A16-CD81EGFP cells; read-out: INHIBITION
measurement kind: cytotoxicity at 10 µM (%)
Give the number; % is assumed, so skip it.

Field request: cytotoxicity at 10 µM | item: CCNC(=O)N1CCC(NC(=O)NCCc2ccc(C)cc2C)C1 (stereo not given)
-44.6

Field request: cytotoxicity at 10 µM | item: `CCc1cnc(N2CC[C@H]3[C@H]2CC(=O)N3c2cccnc2)nc1`
-9.62

Field request: cytotoxicity at 10 µM | item: CS(=O)(=O)NCC1CCCCN1C(=O)c1csc(-c2ccsc2)n1 (stereo not given)
-5.89

Field request: cytotoxicity at 10 µM | item: `CS(=O)(=O)CC1(CNc2c(C#N)cnc3ccc(Cl)cc23)CC1`
8.62

====

Quick reference for cytotoxicity at 10 µM among some compounds
# test details: Toxicity liver stage against HepG2, at 10uM
# Type: cell-based
# Parameters: test concentration 10 uM, cell line HepG2-A16-CD81EGFP
# run conditions: human, HepG2-A16-CD81EGFP cells; read-out: INHIBITION
Write the numeric value and follow it with the unit.

Solved entries (count: 4):
smiles text	cytotoxicity at 10 µM
Cc1cccc(Cn2c3c(ccc2=O)CCN(Cc2ccoc2)CC3)n1	-11.5%
O=C(N1CCOCC1)n1cnc2ccccc21	-3.11%
COCCN1C[C@@H]2CC[C@H]1CN(C(=O)c1ccc(Cl)cc1)C2	-8.03%
COc1coc(C(=O)Nc2nc(-c3cccnc3)cs2)cc1=O	2.66%

Field request: cytotoxicity at 10 µM | item: `CN(Cc1ccsc1)Cc1nc(-c2cnccn2)no1`
-0.164%

====

# test details: Toxicity liver stage against HepG2, at 10uM
# Assay type: cell-based
# Parameters: test concentration 10 uM, cell line HepG2-A16-CD81EGFP
# run conditions: human, HepG2-A16-CD81EGFP cells; read-out: INHIBITION
measurement kind: cytotoxicity at 10 µM (%)
Give the number; % is assumed, so skip it.

Solved entries (count: 2):
smiles text	cytotoxicity at 10 µM, %
O=C(Nc1ccc(-n2ccc(C(=O)O)n2)cc1)c1ccccc1	-139
CCN(CC(=O)NC)S(=O)(=O)N1CCCCC1	1.29

Consider the record given below.
Field request: cytotoxicity at 10 µM | item: `Cc1cc(C)c(CNC(=O)N(C)Cc2cccc(C#N)c2)c(=O)[nH]1`
-5.49

====

# test details: Toxicity liver stage against HepG2, at 10uM
# Type: cell-based
# Set-up: test concentration 10 uM, cell line HepG2-A16-CD81EGFP
# run conditions: human, HepG2-A16-CD81EGFP cells; read-out: INHIBITION
measurement kind: cytotoxicity at 10 µM (%)
Give the number; % is assumed, so skip it.

compound	measurement kind	unit abbrev	assay value
CCS(=O)(=O)N(C)CCCNCc1c(C)nn(C)c1N(C)C	cytotoxicity at 10 µM	%	-8.72
CC(=O)N(Cc1noc(C)n1)C1CCN(Cc2cccc(C#N)c2)C1 (stereo not given)	cytotoxicity at 10 µM	%	-0.645
CC1CN(C)CCN1C(=O)c1cccn1Cc1cccs1 (stereo not given)	cytotoxicity at 10 µM	%	-14.1
N#Cc1ccc(CN2C[C@@H]3OCC(=O)N[C@@H]3C2)cc1	cytotoxicity at 10 µM	%	-3.01
Cc1nc2[nH]cnc(Nc3cnn(C)c3)c-2n1	cytotoxicity at 10 µM	%	5.59

Field request: cytotoxicity at 10 µM | item: CCN1C(=O)C(c2ccccc2)CC12CCN(c1ncccn1)CC2 (stereo not given)
1.11

Field request: cytotoxicity at 10 µM | item: `Clc1ccc2nncc(N3CCCCC3)c2c1`
-4.34

Field request: cytotoxicity at 10 µM | item: CCC1c2cccn2CCN1S(=O)(=O)N1CCOCC1 (stereo not given)
7.25

Field request: cytotoxicity at 10 µM | item: `COCCN(Cc1ccccn1)C(=O)c1ccc(=O)n(C)c1`
-16.8

====

# test details: Toxicity liver stage against HepG2, at 10uM
# Format: cell-based
# Design: test concentration 10 uM, cell line HepG2-A16-CD81EGFP
# run conditions: human, HepG2-A16-CD81EGFP cells; read-out: INHIBITION
measurement kind: cytotoxicity at 10 µM (%)
Give the number; % is assumed, so skip it.

Solved entries (count: 4):
compound	measurement kind	assay value
Cn1cccc1C(=O)N1C[C@@H]2CCCO[C@@H]2[C@H](N2CCOCC2)C1	cytotoxicity at 10 µM	-1.19
CCN(CC)C(=O)CCNC(=O)N(C)Cc1ccc(SC)c(OC)c1	cytotoxicity at 10 µM	-7.9
Cc1noc(C)c1CN1CCCC2(C1)CN(c1nccs1)CCO2 (stereo unspecified)	cytotoxicity at 10 µM	8.47
COc1ccc(CNC(=O)Cc2csc(C(C)=O)c2)cc1	cytotoxicity at 10 µM	4.95

Field request: cytotoxicity at 10 µM | item: c1ccc(CN2C[C@@H]3OCCN(CC4CCCO4)[C@@H]3C2)nc1 (stereo partly specified)
0.616

Field request: cytotoxicity at 10 µM | item: CCCc1nnc(NC(=O)NC(CCO)c2cccs2)s1 (stereo unspecified)
-7.38

Field request: cytotoxicity at 10 µM | item: `Cc1nccc(N[C@H]2CN(C(=O)CCN3CCCC3=O)C[C@@H]2C(C)C)n1`
-6.3

Field request: cytotoxicity at 10 µM | item: Cc1cnn(C2CCCN(C(=O)c3ccc(-n4cccn4)nc3)C2)c1 (stereo unspecified)
-6.12

Field request: cytotoxicity at 10 µM | item: `CCC[C@H]1CN(C2CCOCC2)C[C@@H]1NC(=O)CCn1ccnc1C`
5.78

Field request: cytotoxicity at 10 µM | item: `CCN(Cc1nccn1C)C(=O)c1ccc(NCC(C)C)nc1`
-2.2

Field request: cytotoxicity at 10 µM | item: Cn1cc(CN2CCO[C@H]3C(Cn4cccn4)CC[C@@H]32)cn1 (stereo partly specified)
-3.12

Field request: cytotoxicity at 10 µM | item: O=C(Cc1cn2ccccc2n1)N1CCCC(n2cccn2)C1 (stereo unspecified)
-5.16

Field request: cytotoxicity at 10 µM | item: CN1C(=O)C2(CC(=O)Nc3[nH]ncc32)c2cc(F)ccc21 (stereo unspecified)
0.488

Field request: cytotoxicity at 10 µM | item: Cc1ccc(-c2cc(C(=O)NCC3CCOC3)n[nH]2)s1 (stereo unspecified)
-4.09

Field request: cytotoxicity at 10 µM | item: `COCCN(Cc1cccc(OCCO)c1)Cc1ccccc1F`
-9.53

Field request: cytotoxicity at 10 µM | item: `Clc1ccc(-c2c[nH]c([C@@H]3COCCN3)n2)cc1`
-10.1

Field request: cytotoxicity at 10 µM | item: `CC(C)n1c(=O)[nH]c2cn(-c3ccc(Cl)cc3)c(=O)n21`
-0.769

Field request: cytotoxicity at 10 µM | item: `COC[C@@]12CCO[C@@H]1CCN(C(=O)C1CC(F)(F)C1)C2`
-97.4

Field request: cytotoxicity at 10 µM | item: NC(=O)C1CCCN1C1CCN(C(=O)c2cccc3c2OCO3)CC1 (stereo unspecified)
-0.353
